Record: compiled pIC50 on Serine/threonine-protein kinase PLK1 (Homo sapiens) from multiple reports.
pIC50: −log10 of the molar value.

Bench note, Serine/threonine-protein kinase PLK1 (Homo sapiens): entry CC[C@@H]1C(=O)N(C)c2cnc(Nc3ccc(C(=O)NC4CCN(CCNC(=O)N[C@H](C(=O)OC5CCCC5)c5ccccc5)CC4)cc3OC)nc2N1C1CCCC1 , its pIC50 = > 7.00

Short answer on Serine/threonine-protein kinase PLK1 (Homo sapiens) for COc1cc(-c2c(F)cnc3[nH]c4cnc(-c5cccnc5)cc4c23)ccc1NS(C)(=O)=O , pIC50: 6.00 to 7.00

Form field pIC50 for item COc1cc(C(=O)NC2CCN(C)CC2)ccc1Nc1ncc2c(n1)N(C1CCCC1)CC(C)(C)C(=O)N2C on Serine/threonine-protein kinase PLK1 (Homo sapiens): > 6.30

Form field pIC50 for item O=C(NCc1ccnc(O)c1)c1ccc(-c2c(F)cnc3[nH]c4cnc(-c5cccnc5)cc4c23)cc1 on Serine/threonine-protein kinase PLK1 (Homo sapiens): 6.00 to 7.00

Entry CN1CCCC1CCNC(=O)c1ccc(-c2c(F)cnc3[nH]c4cnc(-c5cccnc5)cc4c23)cc1 (stereo not shown) , Serine/threonine-protein kinase PLK1 (Homo sapiens) data, pIC50 value: 6.00 to 7.00

Let me check: CN1CC(NC(=O)c2ccc(-c3c(F)cnc4[nH]c5cnc(-c6cccnc6)cc5c34)cc2)C1 , system Serine/threonine-protein kinase PLK1 (Homo sapiens), measured pIC50 is 6.00 to 7.00

Observed pIC50, Serine/threonine-protein kinase PLK1 (Homo sapiens), O=C(NCCC#Cc1cnc2nc1NCCCNS(=O)(=O)c1cccc(c1)N2)Nc1ccccc1 : < 5.00

###

// compounds with IC50 on Serine/threonine-protein kinase PLK1 (Homo sapiens), multi-source literature

The recorded IC50 for entry c1cncc(-c2cc3c(cn2)[nH]c2ncccc23)c1 equals 100 to 1000 nM

Data point: O=C(c1cccc(O)c1F)c1c[nH]c2ncc(Br)cc12 ; IC50 = ≤ 10000 nM

Kindly note the recorded IC50 for NC(=O)c1sc(-n2cnc3ccc(OCCCCN4CCOCC4)cc32)nc1-c1cccc(Cl)c1 , which is 11 nM

Sample CC[C@]12COCCN1c1nc(-c3snnc3-c3ccc(F)cc3F)ncc1N(C)C2=O ; IC50 observed: > 50000 nM

The recorded IC50 for entry CN1CCN(CCc2ccc3ncn(-c4nc(-c5cccc(Cl)c5)c(C(N)=O)s4)c3c2)CC1 equals 109 nM

Please fill in: IC50 reported for CCN1CCN(C(C)(C)C#Cc2c(F)cnc3[nH]c4cnc(-c5cccnc5)cc4c23)CC1 = 100 to 1000 nM

Record CC[C@@H]1C(=O)N(C)c2cnc(-n3cnc(CCN)c3)nc2N1C1CCCC1 . Reported IC50: 10000 to 50000 nM

Per the records, this compound ( CN(CCCN1CCOCC1)Cc1ccc2ncn(-c3nc(-c4cccc(Cl)c4)c(C(N)=O)s3)c2c1 ) has IC50 equal to 85 nM

The compound listed as CN(CC1CCCCN1C)C(=O)c1ccc(-c2c(F)cnc3[nH]c4cnc(-c5cccnc5)cc4c23)cc1 (stereo not drawn) has a reported IC50 of 100 to 1000 nM

The recorded IC50 for CC(=O)NCCNC(=O)c1ccc(-c2c(F)cnc3[nH]c4cnc(-c5cccnc5)cc4c23)cc1 is < 100 nM

The compound identified as O=C1Nc2c(F)cccc2/C1=C\c1ccc2cn[nH]c2c1 registered its IC50 at > 50000 nM

In plain terms, O=C1Nc2ccccc2/C1=C\c1ccc2[nH]cnc2c1 has a documented IC50 of 5000 to 50000 nM

response.value for Nc1cccc(-c2ccnc(Nc3ccc(O)cc3)n2)c1 (field: IC50) = 7800 nM

IC50 for O=C1Nc2ccc(F)cc2/C1=C/c1ccc2cn[nH]c2c1 is 5000 to 50000 nM

Record summary for CC(C)NC(=O)Nc1ccc2c(c1)/C(=C\c1ccc3nn[nH]c3c1)C(=O)N2 : reported IC50 = 5000 to 50000 nM

GET /value?item= CC[C@@H]1C(=O)N(C)c2cnc(-n3ccnc3-c3ncccn3)nc2N1C1CCC1 &field=IC50 returns 1000 to 10000 nM

Form field IC50, entry CCC12COCCN1c1nc(-c3cn[nH]c3-c3ccc(F)cc3F)ncc1N(C)C2=O (racemic) : 10000 to 50000 nM

IC50 in this record for CC[C@@H]1C(=O)N(C)c2cnc(Nc3ccc(C(=O)NC4CCN(CCCC(=O)N[C@@H](C(=O)OC5CCCC5)C5CCCCC5)CC4)cc3OC)nc2N1C1CCCC1 : 100 to 500 nM

Value of IC50 reported for the compound CC[C@@]12COCCN1c1nc(-c3ccncc3-c3ccccc3)ncc1N(C)C2=O is < 1000 nM

For record CC[C@]12COCCN1c1nc(-c3ccncc3-c3ccccc3)ncc1N(C)C2=O the listed IC50 is > 50000 nM

Lab note: measured IC50 of O=C(NCCNc1ccccn1)c1ccc(-c2c(F)cnc3[nH]c4cnc(-c5cccnc5)cc4c23)cc1 was < 100 nM

Given item CCC1C(=O)N(C)c2cnc(-c3c[nH]nc3-c3ccc(F)cc3F)nc2N1c1ccn(C)n1 (stereo not drawn) , the value recorded as its IC50 is < 1000 nM

Record CC[C@@H]1C(=O)N(C)c2cnc(-n3cnc(Br)c3)nc2N1C1CCCC1 , field IC50: < 1000 nM

Briefly, IC50 measured for CC[C@@H]1C(=O)N(C)c2cnc(-c3cnsc3-c3ccc(F)cc3)nc2N1C(C)C : < 1000 nM

In plain terms, O=C1Nc2ccc(Br)cc2/C1=C\c1ccc2cn[nH]c2c1 has a documented IC50 of > 50000 nM

Sample Clc1ccc(Cc2c[nH]c3nccc(-c4ccccc4)c23)cn1 ; IC50 observed: ≤ 10000 nM

Reported IC50 for NC(=O)c1ccc(-c2ccnc3[nH]cc(C(=O)c4ccc(Cl)cc4)c23)cc1 was ≤ 10000 nM

Looking up CCOC(=O)c1cnn(-c2ncc3c(n2)N(C2CCCC2)[C@H](CC)C(=O)N3C)c1 , I found its IC50 recorded as < 1000 nM

Item: CN1CCN(Cc2ccc3ncn(-c4nc(-c5ccc(Cl)cc5)c(C(N)=O)s4)c3c2)CC1 | IC50: 499 nM

For Clc1ccc(Nc2nccc(-c3cccc(Cl)c3)n2)cc1 the compound record lists IC50 as 8700 nM

Documented IC50 of COc1cc2ncn(-c3nc(-c4ccccc4)c(C(=O)N(C)C)s3)c2cc1OC : 1380 nM

The compound COc1cc2ncn(-c3nc(-c4cccc(Cl)c4)c(C(=O)O)s3)c2cc1OC showed IC50 equal to 25 nM

Record CC[C@@H]1C(=O)N(C)c2cnc(Nc3ccc(C(=O)NC4CCN(C)CC4)cc3OC3CCOCC3)nc2N1C1CCCC1 , field IC50: 57.6 nM
